experimental-target: GABAA receptor subtype (α1β2γ2S) (Homo sapiens, UniProt P14867+P18507+P47870)
Sequence (P14867 28-456): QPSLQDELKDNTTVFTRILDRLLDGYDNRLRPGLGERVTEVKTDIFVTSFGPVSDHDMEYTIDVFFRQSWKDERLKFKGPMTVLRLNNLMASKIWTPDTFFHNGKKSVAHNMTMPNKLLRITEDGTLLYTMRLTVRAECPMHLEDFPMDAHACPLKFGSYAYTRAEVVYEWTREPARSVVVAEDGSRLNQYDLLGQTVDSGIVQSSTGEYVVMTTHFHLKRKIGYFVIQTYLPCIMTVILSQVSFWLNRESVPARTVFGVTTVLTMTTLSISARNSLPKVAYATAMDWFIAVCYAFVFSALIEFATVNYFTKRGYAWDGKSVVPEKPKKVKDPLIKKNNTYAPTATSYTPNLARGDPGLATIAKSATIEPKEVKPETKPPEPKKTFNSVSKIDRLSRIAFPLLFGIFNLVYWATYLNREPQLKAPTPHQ
Sequence (P47870 26-512): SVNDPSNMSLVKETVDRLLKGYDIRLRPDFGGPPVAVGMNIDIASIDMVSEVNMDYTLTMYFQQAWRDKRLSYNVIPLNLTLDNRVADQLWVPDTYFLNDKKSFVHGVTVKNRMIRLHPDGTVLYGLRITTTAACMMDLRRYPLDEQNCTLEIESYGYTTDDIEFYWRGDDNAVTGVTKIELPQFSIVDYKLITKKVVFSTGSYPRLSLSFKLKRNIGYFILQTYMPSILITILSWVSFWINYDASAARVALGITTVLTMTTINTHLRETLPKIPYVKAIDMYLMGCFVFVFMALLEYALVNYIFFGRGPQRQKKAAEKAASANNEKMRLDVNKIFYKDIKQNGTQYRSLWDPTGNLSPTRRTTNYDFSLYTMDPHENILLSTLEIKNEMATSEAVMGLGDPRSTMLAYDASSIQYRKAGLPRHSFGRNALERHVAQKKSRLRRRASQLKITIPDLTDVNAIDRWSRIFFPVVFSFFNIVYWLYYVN
Sequence (P18507 40-467 isoform P18507-1 limits assumed): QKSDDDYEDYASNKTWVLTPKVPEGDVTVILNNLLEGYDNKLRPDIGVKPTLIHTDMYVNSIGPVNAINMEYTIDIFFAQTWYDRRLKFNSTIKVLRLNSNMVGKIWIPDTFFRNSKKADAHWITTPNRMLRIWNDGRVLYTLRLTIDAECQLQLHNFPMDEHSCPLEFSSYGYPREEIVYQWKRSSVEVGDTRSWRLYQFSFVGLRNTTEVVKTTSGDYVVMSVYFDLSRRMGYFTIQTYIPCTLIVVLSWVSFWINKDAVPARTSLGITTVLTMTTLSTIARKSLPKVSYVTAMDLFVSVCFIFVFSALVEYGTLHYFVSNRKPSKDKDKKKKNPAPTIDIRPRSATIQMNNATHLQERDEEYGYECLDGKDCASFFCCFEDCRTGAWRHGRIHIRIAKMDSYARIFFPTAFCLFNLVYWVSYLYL
protocol-notes: Two-microelectrode voltage-clamp in Xenopus laevis oocytes
assay-conditions: read-out: IGABA Potentiation of 100 µM (%)
recorded-endpoint: activation at 100 µM (%)

• CC(C)c1cc2c(cc1O)C1(C)CCCC(C)(C(=O)O)C1CC2=O (single isomer, unassigned; (+)) [Compound 8a, (+)-4-epi-liquiditerpenoic acid A] = -8
• CC(C)c1ccc2c(c1)CC[C@H]1[C@](C)(C(=O)O)CCC[C@]21C [Compound 3, dehydroabietic acid, reference compound] = 789
• COC(=O)[C@@]1(C)CCC[C@]2(C)c3cc(O)c(C(C)C)cc3C(=O)C[C@@H]12 = 104
• CC(C)c1cc2c(cc1O)[C@@]1(C)CCC[C@](C)(CO)[C@@H]1CC2 [Compound 14, 19-hydroxyferruginol] = 507
• COC(=O)[C@@]1(C)CCC[C@]2(C)c3cc(O)c(C(C)C)cc3CC[C@@H]12 = 65
• CC(C)c1cc2c(cc1O)[C@@]1(C)CCC[C@](C)(C(=O)O)[C@@H]1CC2 = 71
• CC(C)c1cc2c(cc1O)[C@@]1(C)CCC[C@](C)(CO)[C@@H]1CC2=O [Compound 15, 19-hydroxysugiol] = 238
• COC(=O)[C@@]1(C)CCC[C@]2(C)c3cc(OC(C)=O)c(C(C)C)cc3C(=O)C[C@@H]12 = 75

----------
experimental-target: GABAA receptor subtype (α1β2γ2S) (Homo sapiens, UniProt P14867+P18507+P47870)
protocol-notes: Two-microelectrode voltage-clamp in Xenopus laevis oocytes
assay-conditions: read-out: IGABA Potentiation of 10 µM (%)
# activation at 10 µM values compiled below
recorded-endpoint: activation at 10 µM (%)

- CC(C)c1cc2c(cc1O)[C@@]1(C)CCC[C@](C)(CO)[C@@H]1CC2 [Compound 14, 19-hydroxyferruginol]: 64
- COC(=O)[C@@]1(C)CCC[C@]2(C)c3cc(OC(C)=O)c(C(C)C)cc3C(=O)C[C@@H]12: 1
- COC(=O)[C@@]1(C)CCC[C@]2(C)c3cc(O)c(C(C)C)cc3CC[C@@H]12: 1
- CC(C)c1cc2c(cc1O)[C@@]1(C)CCC[C@](C)(CO)[C@@H]1CC2=O [Compound 15, 19-hydroxysugiol]: 30
- CC(C)c1cc2c(cc1O)C1(C)CCCC(C)(C(=O)O)C1CC2=O (single isomer, unassigned; (+)) [Compound 8a, (+)-4-epi-liquiditerpenoic acid A]: -8
- COC(=O)[C@@]1(C)CCC[C@]2(C)c3cc(O)c(C(C)C)cc3C(=O)C[C@@H]12: 5
- CC(C)c1ccc2c(c1)CC[C@H]1[C@](C)(C(=O)O)CCC[C@]21C [Compound 3, dehydroabietic acid, reference compound]: 192
- CC(C)c1cc2c(cc1O)[C@@]1(C)CCC[C@](C)(C(=O)O)[C@@H]1CC2: 3

----------
Test system: WiDr (Colon)
protocol-notes: Antiproliferative SRB assay
Assay type: cell-based, human
assay-conditions: Homo sapiens, WiDr, mean ± SD of at least two experiments
# GI50 values compiled below
recorded-endpoint: GI50

- CC(C)c1cc2c(cc1O)C1(C)CCCC(C)(C(=O)O)C1CC2=O (single isomer, unassigned; (+)) [Compound 8a, (+)-4-epi-liquiditerpenoic acid A]: 33 µM
- CC(C)c1cc2c(cc1O)[C@@]1(C)CCC[C@](C)(CO)[C@@H]1CC2 [Compound 14, 19-hydroxyferruginol]: 13 µM
- COC(=O)[C@@]1(C)CCC[C@]2(C)c3cc(OC(C)=O)c(C(C)C)cc3C(=O)C[C@@H]12: 5.2 µM

----------
Tested on: Macrophages J774
assay-conditions: mouse
recorded-endpoint: CC50

* CC(C)c1cc2c(cc1O)[C@@]1(C)CCC[C@](C)(C(=O)O)[C@@H]1CC2 [Compound 13, lambertic acid] | 217 µM

----------
protocol-notes: in vitro
assay-conditions: mouse, Macrophages J774 CC50
recorded-endpoint: CC50 (µM)

- CC(C)c1cc2c(cc1O)[C@@]1(C)CCC[C@](C)(CO)[C@@H]1CC2 [Compound 14, 19-hydroxyferruginol]: 51.9
- CCCCCCCCCCCCCCCCOP(=O)([O-])OCC[N+](C)(C)C [Miltefosine, reference compound]: 136
- CC(C)c1cc2c(cc1O)[C@@]1(C)CCC[C@](C)(CO)[C@@H]1CC2=O [Compound 15, 19-hydroxysugiol]: 50.1

----------
Test system: SW1573 (Lung)
protocol-notes: Antiproliferative SRB assay
Format: cell-based, human
assay-conditions: Homo sapiens, SW1573, mean ± SD of at least two experiments
recorded-endpoint: GI50 (µM)

* COC(=O)[C@@]1(C)CCC[C@]2(C)c3cc(OC(C)=O)c(C(C)C)cc3CC[C@@H]12 [Compound 10] | 18
* CC(C)c1cc2c(cc1O)C1(C)CCCC(C)(C(=O)O)C1CC2=O (single isomer, unassigned; (+)) [Compound 8a, (+)-4-epi-liquiditerpenoic acid A] | 41
* CC(C)c1cc2c(cc1O)[C@@]1(C)CCC[C@](C)(C(=O)O)[C@@H]1CC2 [Compound 13, lambertic acid] | 32
* COC(=O)[C@@]1(C)CCC[C@]2(C)c3cc(O)c(C(C)C)cc3CC[C@@H]12 [Compound 12] | 12
* COC(=O)[C@@]1(C)CCC[C@]2(C)c3cc(C(C)=O)c(C(C)C)cc3CC[C@@H]12 [Compound 9] | 25
* COC(=O)[C@@]1(C)CCC[C@]2(C)c3cc(OC(C)=O)c(C(C)C)cc3C(=O)C[C@@H]12 [Compound 11] | 17

----------
Tested on: L. guyanensis promastigotes
protocol-notes: Antileishmanial in vitro promastigote assay
assay-conditions: Leishmania guyanensis, read-out: L. guyanensis IC50 ± SD
pIC50: −log10 of the molar value.
recorded-endpoint: pIC50

- CC(C)c1cc2c(cc1O)C1(C)CCCC(C)(C(=O)O)C1CC2=O (single isomer, unassigned; (+)) [Compound 8a, (+)-4-epi-liquiditerpenoic acid A]: 5.52
- CC(C)c1cc2c(cc1O)[C@@]1(C)CCC[C@](C)(C(=O)O)[C@@H]1CC2: 4.75
- CCCCCCCCCCCCCCCCOP(=O)([O-])OCC[N+](C)(C)C [Miltefosine, reference compound]: 4.74
- COC(=O)[C@@]1(C)CCC[C@]2(C)c3cc(C(C)=O)c(C(C)C)cc3CC[C@@H]12: 4.73
- COC(=O)[C@@]1(C)CCC[C@]2(C)c3cc(O)c(C(C)C)cc3C(=O)C[C@@H]12: 5.25

----------
System: L. amazonensis promastigotes
protocol-notes: Antileishmanial in vitro promastigote assay
assay-conditions: Leishmania amazonensis, read-out: L. amazonensis IC50 ± SD
pIC50: −log10 of the molar value.
# pIC50 values compiled below
recorded-endpoint: pIC50

- CCCCCCCCCCCCCCCCOP(=O)([O-])OCC[N+](C)(C)C [Miltefosine, reference compound]: 4.32
- COC(=O)[C@@]1(C)CCC[C@]2(C)c3cc(O)c(C(C)C)cc3C(=O)C[C@@H]12: 5.07
- CC(C)c1cc2c(cc1O)[C@@]1(C)CCC[C@](C)(C(=O)O)[C@@H]1CC2: 4.29
- COC(=O)[C@@]1(C)CCC[C@]2(C)c3cc(OC(C)=O)c(C(C)C)cc3CC[C@@H]12: 5.13
- CC(C)c1cc2c(cc1O)C1(C)CCCC(C)(C(=O)O)C1CC2=O (single isomer, unassigned; (+)) [Compound 8a, (+)-4-epi-liquiditerpenoic acid A]: 4.02
- COC(=O)[C@@]1(C)CCC[C@]2(C)c3cc(C(C)=O)c(C(C)C)cc3CC[C@@H]12: 4.85

----------
Tested on: SW1573 (Lung)
protocol-notes: Antiproliferative SRB assay
Assay type: cell-based, human
assay-conditions: Homo sapiens, SW1573, mean ± SD of at least two experiments
recorded-endpoint: GI50 (µM)

- CC(C)c1cc2c(cc1O)[C@@]1(C)CCC[C@](C)(CO)[C@@H]1CC2 [Compound 14, 19-hydroxyferruginol]: 13
- CC(C)c1cc2c(cc1O)[C@@]1(C)CCC[C@](C)(CO)[C@@H]1CC2=O [Compound 15, 19-hydroxysugiol]: 19
- COc1cc([C@@H]2c3cc4c(cc3[C@@H](O[C@@H]3O[C@@H]5CO[C@@H](C)O[C@H]5[C@H](O)[C@H]3O)[C@H]3COC(=O)[C@H]23)OCO4)cc(OC)c1O [etoposide, reference compound]: 15

----------
protocol-notes: Cytotoxicity assay on J774 macrophages
assay-conditions: mouse, Macrophages J774 CC50, 50% reduction of cell viability
recorded-endpoint: CC50

- COC(=O)[C@@]1(C)CCC[C@]2(C)c3cc(OC(C)=O)c(C(C)C)cc3C(=O)C[C@@H]12 [Compound 11]: 45.8 µM
- COC(=O)[C@@]1(C)CCC[C@]2(C)c3cc(C(C)=O)c(C(C)C)cc3CC[C@@H]12 [Compound 9]: > 200 µM
- COC(=O)[C@@]1(C)CCC[C@]2(C)c3cc(OC(C)=O)c(C(C)C)cc3CC[C@@H]12 [Compound 10]: 30.2 µM
- COC(=O)[C@@]1(C)CCC[C@]2(C)c3cc(O)c(C(C)C)cc3CC[C@@H]12 [Compound 12]: 65.4 µM
